system: INSR; details: concentration: 1 μM,replicates: in singlicate; n = 1;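 further: KINOMEscan kinase panel screen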
# binning rule on %Inh: Low: < 2%; Mid: ≥ 2% and < 10%; High: ≥ 10%

Check out these entries, answers already filled in.
>  <COMPOUND>
Cn1ccc2ncnc(Oc3ccc(NC(=O)Nc4cncc(C(F)(F)F)c4)c(Cl)c3)c21

>  <EXPERIMENTAL_SYSTEM>
INSR

>  <LABEL_CLASS>
Low

$$$$
>  <COMPOUND>
CC(=O)Nc1nc2cnc(Nc3cc(NC(=O)c4cccc(CC(C)(C)C#N)c4)ccc3C)nc2s1

>  <EXPERIMENTAL_SYSTEM>
INSR

>  <LABEL_CLASS>
High

$$$$
>  <COMPOUND>
c1ccc(Oc2ccc(Nc3ccnc4ccc(-c5ccccn5)cc34)cc2)cc1

>  <EXPERIMENTAL_SYSTEM>
INSR

>  <LABEL_CLASS>
Mid

$$$$
>  <COMPOUND>
Cc1n[nH]c2cc(Nc3ccnc(Nc4cccc(CN5CCOCC5)c4)n3)ccc12

>  <EXPERIMENTAL_SYSTEM>
INSR

>  <LABEL_CLASS>
Mid

$$$$
>  <COMPOUND>
CS(=O)c1ccc(-c2coc3ccc(-c4n[nH]c(=O)o4)cc23)cc1 (stereo not shown)

>  <EXPERIMENTAL_SYSTEM>
INSR

>  <LABEL_CLASS>
High

$$$$
>  <COMPOUND>
O=C1NCCc2[nH]c(-c3ccncc3)cc21

>  <EXPERIMENTAL_SYSTEM>
INSR

>  <LABEL_CLASS>
Mid

$$$$
>  <COMPOUND>
Cc1ccc(CC(=O)N2CCc3cc(-c4cn(C)c5ncnc(N)c45)ccc32)cc1

>  <EXPERIMENTAL_SYSTEM>
INSR

>  <LABEL_CLASS>
Mid

$$$$
>  <COMPOUND>
COc1cccc(C2=C(Nc3cccc(Cl)c3)C(=O)NC2=O)c1

>  <EXPERIMENTAL_SYSTEM>
INSR

>  <LABEL_CLASS>
High

$$$$

Where would `CN(c1cccc(CNc2nc(Nc3ccc4c(c3)CC(=O)N4)ncc2C(F)(F)F)c1)S(C)(=O)=O` land among the classes by reported %Inh?
High

Where would `CC(=O)Nc1ccc(-c2cc3ncnc(SCC(=O)O)c3s2)cc1` land among the classes by reported %Inh?
Low

Where would `O=c1[nH]cc(-c2ccc(O)cc2)c2sc(-c3ccncc3)cc12` land among the classes by reported %Inh?
High

Where would COC(=O)c1cccc(NC(=O)NC2CCN(c3ccnc(Nc4cc(OC)c(OC)c(OC)c4)n3)C2)c1 (stereo not shown) land among the classes by reported %Inh?
High

Where would CCNCC(Cc1ccccc1)NC(=O)c1cc(Br)c(-c2ccnc3[nH]ccc23)s1.Cl.Cl (stereo not shown) land among the classes by reported %Inh?
Low

Where would `CC(C)S(=O)(=O)N1CCN(Cc2ccc3c(c2)nc(NC(=O)c2ccsc2)n3C[C@H](O)c2ccccc2)CC1` land among the classes by reported %Inh?
High

----------
tested on: CDK4-cyclinD1; details: concentration: 1 μM,replicates: in singlicate; n = 1
The entries below are paired with their reported %Inh.
# value in %; strip the unit string

Observe how each entry below is paired with its result.
>  <COMPOUND>
Cn1ccc2ncnc(Oc3ccc(NC(=O)Nc4ccnc(C(F)(F)F)c4)c(Cl)c3)c21

>  <MEASUREMENT_LABEL>
%Inh

>  <OBS_VALUE>
0

$$$$
>  <COMPOUND>
Cc1ccc(CC(=O)N2CCc3cc(-c4cn(C)c5ncnc(N)c45)ccc32)cc1

>  <MEASUREMENT_LABEL>
%Inh

>  <OBS_VALUE>
0

$$$$
>  <COMPOUND>
CN1CCN(CCNc2nc3cc(Oc4ccc(NC(=O)Nc5cc(C(F)(F)F)ccc5F)cc4)ccc3[nH]2)CC1.Cl.Cl

>  <MEASUREMENT_LABEL>
%Inh

>  <OBS_VALUE>
0

$$$$
>  <COMPOUND>
CC(=O)Nc1nc2cnc(Nc3cc(NC(=O)c4cccc(CC(C)(C)C#N)c4)ccc3C)nc2s1

>  <MEASUREMENT_LABEL>
%Inh

>  <OBS_VALUE>
1

$$$$

Item: `O=C1NCCc2[nH]c(-c3ccncc3)cc21` | %Inh: 21

Item: `C[C@@H](Oc1cc(-n2cnc3cc(-c4ccncc4)ccc32)sc1C(N)=O)c1ccccc1Cl` | %Inh: 0

Item: CS(=O)c1ccc(-c2coc3ccc(-c4n[nH]c(=O)o4)cc23)cc1 (centres unmarked) | %Inh: 0

Item: `C[C@@H]1CCN(C(=O)N2CCCC2)C[C@@H]1N(C)c1ncnc2[nH]ccc12` | %Inh: 21

----------
The entries below are paired with their reported %Inh.
tested on: NIK; construct: gene MAP3K14; conditions: concentration: 1 μM,replicates: in singlicate; n = 1
# value in %; strip the unit string

>  <MOLECULE>
Cl.Cl.NC[C@H](CC1CCCCC1)NC(=O)c1ccc(-c2ccnc3[nH]ccc23)s1

>  <OBS_VALUE>
0

$$$$
>  <MOLECULE>
CC(=O)Nc1nc2cnc(Nc3cc(NC(=O)c4cccc(CC(C)(C)C#N)c4)ccc3C)nc2s1

>  <OBS_VALUE>
0

$$$$
>  <MOLECULE>
CCN1CCN(CCCC(=O)Nc2n[nH]c3nc(-c4ccc(O)cc4)c(Br)cc23)CC1

>  <OBS_VALUE>
27

$$$$

Item: `Cc1ccn2nc(-c3ccc(F)cc3)c(-c3ccncc3)c2c1.Cl` | %Inh: 38

Item: `Cn1ccc2ncnc(Oc3ccc(NC(=O)Nc4ccnc(C(F)(F)F)c4)c(Cl)c3)c21` | %Inh: 0

Item: `NC(=O)Nc1sc(-c2ccc(F)cc2)cc1C(N)=O` | %Inh: 37

Item: `OCCn1cc(-c2cnc3nnn(Cc4ccc5ncccc5c4)c3n2)cn1` | %Inh: 15

Item: `COc1cccc(C2=C(Nc3cccc(Cl)c3)C(=O)NC2=O)c1` | %Inh: 26

Item: `Cc1ccc(CC(=O)N2CCc3cc(-c4cn(C)c5ncnc(N)c45)ccc32)cc1` | %Inh: 16

----------
system: GRK7; conditions: concentration: 1 μM,replicates: in singlicate; n = 1
MEASUREMENT_LABEL: %Inh
Please answer in the form of a number followed by its unit of measurement.

Observe how each entry below is paired with its result.
>  <COMPOUND>
COC(=O)c1cccc(NC(=O)NC2CCN(c3ccnc(Nc4cc(OC)c(OC)c(OC)c4)n3)C2)c1 (centres unmarked)

>  <EXPERIMENTAL_SYSTEM>
GRK7

>  <%Inh>
0%

$$$$
>  <COMPOUND>
CC(C)c1nc(-c2cccc(NS(=O)(=O)c3ccccc3)c2)c(-c2ccnc(Nc3ccc4c(c3)CN(C)CC4)n2)s1

>  <EXPERIMENTAL_SYSTEM>
GRK7

>  <%Inh>
0%

$$$$
>  <COMPOUND>
FC(F)(F)c1cc(Br)cc(Nc2nccc(-c3cnn4ncccc34)n2)c1

>  <EXPERIMENTAL_SYSTEM>
GRK7

>  <%Inh>
10%

$$$$
>  <COMPOUND>
CN1CCN(CCCNc2nccc(-c3c(-c4ccc(F)cc4)nn4cc(C(N)=O)ccc34)n2)CC1

>  <EXPERIMENTAL_SYSTEM>
GRK7

>  <%Inh>
0%

$$$$

Item: `Cn1ccc2ncnc(Oc3ccc(NC(=O)Nc4ccnc(C(F)(F)F)c4)c(Cl)c3)c21` | %Inh: 0%

Item: CCNCC(Cc1ccccc1)NC(=O)c1cc(Br)c(-c2ccnc3[nH]ccc23)s1.Cl.Cl (centres unmarked) | %Inh: 91.9%

Item: `CN(c1ccccc1CNc1nc(Nc2ccc3c(c2)CC(=O)N3)ncc1C(F)(F)F)S(C)(=O)=O` | %Inh: 47%

Item: `CSc1nccc(-c2c(-c3ccc(F)cc3)ncn2CCCN2CCOCC2)n1.Cl` | %Inh: 0%

----------
system: TGFBR2; details: concentration: 1 μM,replicates: in singlicate; n = 1
MEASUREMENT_LABEL: %Inh

Observe how each entry below is paired with its result.
>  <COMPOUND>
COc1cc2nccc(Nc3ccc(Oc4ccccc4)cc3)c2cc1OC.Cl

>  <OBS_VALUE>
0%

$$$$
>  <COMPOUND>
Cn1ccc2ncnc(Oc3ccc(NC(=O)Nc4cncc(C(F)(F)F)c4)c(Cl)c3)c21

>  <OBS_VALUE>
0%

$$$$
>  <COMPOUND>
Cl.Cl.NC[C@H](CC1CCCCC1)NC(=O)c1ccc(-c2ccnc3[nH]ccc23)s1

>  <OBS_VALUE>
0%

$$$$

Item: `Cc1cccc(-c2nc(Nc3ccncc3)c3sccc3n2)n1` | %Inh: 95.6%

Item: `COc1cccc(OC)c1C(=O)Nc1cccc(-c2nn3ccccc3c2-c2ccnc(Nc3cccc(F)c3)n2)c1` | %Inh: 17%

Item: `Cc1cccc2c(-c3ccncc3)c(-c3ccc(F)cc3)nn12.Cl` | %Inh: 0%

Item: COC(=O)c1cccc(NC(=O)NC2CCN(c3ccnc(Nc4cc(OC)c(OC)c(OC)c4)n3)C2)c1 (stereo not shown) | %Inh: 0%

Item: `C[C@@H](Oc1cc(-n2cnc3cc(-c4cnn(C)c4)ccc32)sc1C(N)=O)c1ccccc1Cl` | %Inh: 0%

Item: `O=C(Nc1ccc(Oc2ccc3nc(NC(=O)C4CC4)cn3n2)c(F)c1)c1cccn(-c2ccccc2)c1=O` | %Inh: 9%

Item: `CC(=O)c1c(-c2ccncc2)[nH]c(-c2ccncc2)c1C` | %Inh: 25%

Item: `CC(=O)Nc1ccc(-c2cc3ncnc(SCC(=O)O)c3s2)cc1` | %Inh: 46%

Item: `O=C(Nc1n[nH]c2cc(-c3ccco3)ccc12)C1CC1` | %Inh: 0%

Item: `O=C(NOCC1CC1)c1cc(Br)c(F)c(F)c1Nc1ccc(I)cc1Cl` | %Inh: 0%
